So I've got a bunch of molecules here, and I need their Cell survival at given concentration values.
Test system: A-431 skin cancer cells
Method notes: Cancer cell survival (CellTiter-Glo), A-431
Assay type: cell-based
Design: unit not given here
Condition parameters: A-431 cells; 10 μM; 72 h; Table 9.2
A bare number is all that is needed in reply.

Return value of Cell survival at given concentration for input CC(O)CCO (stereo not shown) [butanediol] , no commentary.
1.04

Return value of Cell survival at given concentration for input CC(O)CC(=O)O (stereo not drawn) [beta-hydroxybutyrate] , no commentary.
1.03

Return value of Cell survival at given concentration for input CC(=O)O [acetate] , no commentary.
1.06

Return value of Cell survival at given concentration for input CCCCC(=O)O [valerate] , no commentary.
1.02
